- measured.on: USP7 (Homo sapiens)
- Sequence (Q93009 whole entry): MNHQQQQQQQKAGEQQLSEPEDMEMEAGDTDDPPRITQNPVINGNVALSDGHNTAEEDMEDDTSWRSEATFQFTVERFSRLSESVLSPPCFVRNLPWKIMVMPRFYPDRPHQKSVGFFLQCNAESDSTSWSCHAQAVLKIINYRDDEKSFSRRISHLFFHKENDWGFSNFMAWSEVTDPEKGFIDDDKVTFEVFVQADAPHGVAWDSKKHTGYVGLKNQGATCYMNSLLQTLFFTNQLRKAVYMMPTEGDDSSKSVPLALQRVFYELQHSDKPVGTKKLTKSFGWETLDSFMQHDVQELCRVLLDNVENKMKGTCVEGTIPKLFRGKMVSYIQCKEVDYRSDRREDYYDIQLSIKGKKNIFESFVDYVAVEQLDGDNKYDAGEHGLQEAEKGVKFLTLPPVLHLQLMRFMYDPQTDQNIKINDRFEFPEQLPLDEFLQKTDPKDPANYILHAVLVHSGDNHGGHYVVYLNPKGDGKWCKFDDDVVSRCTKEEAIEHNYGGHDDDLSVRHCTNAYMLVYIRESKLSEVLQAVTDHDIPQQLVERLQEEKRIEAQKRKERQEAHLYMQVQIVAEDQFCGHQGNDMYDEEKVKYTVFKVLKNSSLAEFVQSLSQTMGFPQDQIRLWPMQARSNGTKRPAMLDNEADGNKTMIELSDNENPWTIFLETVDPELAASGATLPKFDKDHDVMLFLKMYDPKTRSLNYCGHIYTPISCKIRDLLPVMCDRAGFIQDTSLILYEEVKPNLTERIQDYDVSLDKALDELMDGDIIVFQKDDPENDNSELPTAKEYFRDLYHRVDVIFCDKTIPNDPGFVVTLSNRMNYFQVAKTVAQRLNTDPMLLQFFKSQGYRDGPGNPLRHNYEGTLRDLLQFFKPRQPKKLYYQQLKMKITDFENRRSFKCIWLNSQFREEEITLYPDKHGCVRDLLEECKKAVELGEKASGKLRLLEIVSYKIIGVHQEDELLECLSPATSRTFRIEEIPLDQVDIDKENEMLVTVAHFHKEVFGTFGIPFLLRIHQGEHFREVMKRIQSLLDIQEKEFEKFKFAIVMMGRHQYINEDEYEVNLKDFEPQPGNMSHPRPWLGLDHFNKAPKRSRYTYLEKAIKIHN
measurement.label: IC50

Reference set, count: 3
[[record]]
compound = "N#Cc1cc2c(c(-c3ccnc4cc(Cn5c(=O)ccn(CC(F)(F)F)c5=O)sc34)c1)N([C@H]1CCN([C@@H]3CC[C@H]3O)C1)CCC2 (single isomer, unassigned) [Example 107a]"
measured_on = "USP7 (Homo sapiens)"
measurement_label = "IC50"
observed = "< 0.01 µM"

[[record]]
compound = "C[C@@H](c1cc2nccc(-c3cc(C#N)cc4c3N([C@H]3CCNC3)CCC4)c2s1)N1C(=O)CCC1=O (single isomer, unassigned) [Example 112b]"
measured_on = "USP7 (Homo sapiens)"
measurement_label = "IC50"
observed = "0.101 to 1 µM"

[[record]]
compound = "O=C1CCC(=O)N1Cc1cc2nccc(-c3cccc4c3N([C@H]3CCNC3)CCO4)c2s1 (single isomer, unassigned) [Example 111a]"
measured_on = "USP7 (Homo sapiens)"
measurement_label = "IC50"
observed = "0.01 to 0.1 µM"


Q. Find the measured IC50: item O=C1CCC(=O)N1Cc1cc2nccc(-c3cc(Cl)cc4c3N([C@H]3CO[C@H](CO)C3)CCO4)c2s1 (single isomer, unassigned) [Example 227b] , target or system USP7 (Homo sapiens).
A. 0.101 to 1 µM

Q. Find the measured IC50: item C[C@@H]1C[C@H](N2CCCc3cc(Cl)cc(-c4ccnc5cc(Cn6c(=O)ccn(CC(F)(F)F)c6=O)sc45)c32)CN1 (single isomer, unassigned) [Example 95b] , target or system USP7 (Homo sapiens).
A. 0.01 to 0.1 µM

Q. Find the measured IC50: item O=C1CCC(=O)N1Cc1cc2nccc(-c3cc(Cl)cc4c3N([C@@H]3CCCNC3)CCC4)c2s1 (single isomer, unassigned) [Example 51b] , target or system USP7 (Homo sapiens).
A. 0.01 to 0.1 µM

Q. Find the measured IC50: item O=c1c2ccccc2cnn1Cc1cc2nccc(-c3cc(Cl)cc4c3N(C3CNC3)CCC4)c2s1 , target or system USP7 (Homo sapiens).
A. 0.101 to 1 µM

Q. Find the measured IC50: item O=C1CCC(=O)N1Cc1cc2nccc(-c3cccc4c3N([C@@H]3CCNC3)CCO4)c2s1 (single isomer, unassigned) [Example 111b] , target or system USP7 (Homo sapiens).
A. > 1 µM

Q. Find the measured IC50: item O=c1ccn(C2CC2)c(=O)n1Cc1cc2nccc(-c3cc(C(F)(F)F)cc4c3N(C3CNC5(CCC5)C3)CCC4)c2s1 (single isomer, unassigned) [Example 162a] , target or system USP7 (Homo sapiens).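 Further: fluorescence intensity readout of USP7 enzymatic activity, reaction incubated 90 min at room temperature.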
A. < 0.01 µM

Source: patent US20240158412A1
